Hey, just so you know, these numbers are from patent US20250034116A1.

test system: CYP enzymes in rat liver microsomes (RLM); assay: Inhibition of 20-HETE production in rat liver microsomes (RLM); format: biochemical
Recorded IC50 by entry
Give the value, in units of nM, as a plain number.

Observe how each entry below is paired with its result.
// O=C1CCCN1CC1CCN(c2ccc(-c3cn[nH]c3)cc2C(F)F)CC1 : IC50 value = 434

Data point: O=C1CCCN1CC1CCN(c2ccc(-c3cn[nH]c3)cc2C(F)(F)F)CC1 ; IC50 = 542

According to the records, this compound O=C1CCCN1CC1CCN(c2ccc(-c3cn[nH]c3)cc2Cl)CC1 displays IC50 of 157

// O=S1(=O)CCCCN1CC1CCN(c2ccc(-c3cn[nH]c3)cc2F)CC1 : IC50 value = 222

Value of IC50 reported for the compound O=C(N1CCCC1)N1CCN(c2ccc(-c3cn[nH]c3)c(F)c2F)CC1 is 5.36

Recorded result, O=C1CCCN1CC1CCN(c2ccc(-c3cn[nH]c3)cc2)CC1 , IC50: 224

***
Sure, the documented IC50 for O=C(C1CCN(c2ccc(-c3cn[nH]c3)cc2F)CC1)N1CC2CCCC2C1 (stereo not drawn) is 361

So, O=C(NCc1ccccc1)N1CCN(c2ccc(-c3cn[nH]c3)c(F)c2F)CC1 ? Its IC50 was 148

Record O=C(C1CCCCC1)N1CCC(c2ccc(-c3cn[nH]c3)c(F)c2F)CC1 . Reported IC50: 25.4

====

system: CYP enzymes in human liver microsomes (HLM); test: Inhibition of 20-HETE production in human liver microsomes (HLM); format: biochemical; conditions: 500 nM
Catalogue of compounds with associated HLM (% inh @ 500 nM)
Record the value in %, omitting the unit from your answer.

O=C(C1CCCC1)N1CCC(c2ccc(-c3cn[nH]c3)c(F)c2F)CC1 has a reported HLM (% inh @ 500 nM) of 96.23

Further cases:
Summary for this compound, O=C1CCCN1C1CCN(c2ccc(-c3cn[nH]c3)cc2)CC1 : HLM (% inh @ 500 nM) is 65.78

Please fill in: HLM (% inh @ 500 nM) reported for O=C(C1CCCC1)N1CCC(c2ccc(-c3cn[nH]c3)cc2F)CC1 = 92.84

The compound listed as O=S(=O)(C1CCCCC1)N1CCC(c2ccc(-c3cn[nH]c3)cc2F)CC1 has a reported HLM (% inh @ 500 nM) of 87.83

Measured HLM (% inh @ 500 nM), N#Cc1cc(-c2cn[nH]c2)ccc1N1CCC(CN2CCCC2=O)CC1 : 58.98

HLM (% inh @ 500 nM) for O=C1CCCN1CC1CCN(c2ccc(-c3cn[nH]c3)nc2)CC1 is 53.10

According to the records, this compound O=C1CCCN1CCC1CCN(c2ccc(-c3cn[nH]c3)cc2)CC1 displays HLM (% inh @ 500 nM) of 73.42

Recorded HLM (% inh @ 500 nM) (compound O=C(NC1CCCC1)C1CCN(c2ccc(-c3cn[nH]c3)cc2)CC1 ): 62.73

Record summary for O=C(CCCCCO)NCC1CCN(c2ccc(-c3cn[nH]c3)cc2)CC1 : reported HLM (% inh @ 500 nM) = 57.83

====

test system: CYP enzymes in human liver microsomes (HLM); assay: Inhibition of 20-HETE production in human liver microsomes (HLM); assay type: biochemical; conditions: 100 nM
experimentalEndpoint: HLM (% inh @ 100 nM) (%)
Dear colleague, please return just the value in %, with no unit written.

Looking up O=C1CCCCCN1CC1CCN(c2ccc(-c3cn[nH]c3)cc2F)CC1 [Compound 161] , I found its HLM (% inh @ 100 nM) recorded as 86.45

Continuing:
The molecule listed as CC(C)(O)CNC(=O)N1CCC(c2ccc(-c3cn[nH]c3)cc2F)CC1 [Compound 152] has a reported HLM (% inh @ 100 nM) of 88.49

Item: O=C(C1CCCCC1O)N1CCC(c2ccc(-c3cn[nH]c3)cc2F)CC1 (single isomer, unassigned) [Compound 149a] | HLM (% inh @ 100 nM): 84.74
